# assayTarget: NEK7 (Homo sapiens (Human), UniProt Q8TDX7+Q96SW2)
# Sequence (Q8TDX7 whole entry): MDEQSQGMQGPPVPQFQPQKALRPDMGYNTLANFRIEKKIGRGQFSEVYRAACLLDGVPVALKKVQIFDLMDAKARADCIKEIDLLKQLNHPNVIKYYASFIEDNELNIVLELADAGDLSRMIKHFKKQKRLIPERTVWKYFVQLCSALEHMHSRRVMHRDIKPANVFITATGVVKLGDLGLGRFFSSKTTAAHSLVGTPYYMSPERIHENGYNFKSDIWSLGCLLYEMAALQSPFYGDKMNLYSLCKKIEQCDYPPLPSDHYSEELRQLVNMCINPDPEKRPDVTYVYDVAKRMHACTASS
# Sequence (Q96SW2 whole entry): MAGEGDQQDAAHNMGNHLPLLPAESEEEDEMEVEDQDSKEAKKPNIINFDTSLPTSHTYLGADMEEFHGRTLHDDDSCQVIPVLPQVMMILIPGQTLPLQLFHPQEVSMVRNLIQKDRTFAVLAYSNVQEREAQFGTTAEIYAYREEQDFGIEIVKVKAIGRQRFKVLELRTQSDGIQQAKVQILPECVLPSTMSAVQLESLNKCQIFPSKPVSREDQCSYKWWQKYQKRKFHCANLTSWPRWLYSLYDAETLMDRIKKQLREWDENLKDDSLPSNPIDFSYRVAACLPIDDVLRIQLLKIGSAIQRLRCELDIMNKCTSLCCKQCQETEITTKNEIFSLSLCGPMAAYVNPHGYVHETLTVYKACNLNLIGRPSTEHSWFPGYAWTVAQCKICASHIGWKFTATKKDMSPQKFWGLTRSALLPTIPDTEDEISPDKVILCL
# Sequence (Q16531 2-1140 partner): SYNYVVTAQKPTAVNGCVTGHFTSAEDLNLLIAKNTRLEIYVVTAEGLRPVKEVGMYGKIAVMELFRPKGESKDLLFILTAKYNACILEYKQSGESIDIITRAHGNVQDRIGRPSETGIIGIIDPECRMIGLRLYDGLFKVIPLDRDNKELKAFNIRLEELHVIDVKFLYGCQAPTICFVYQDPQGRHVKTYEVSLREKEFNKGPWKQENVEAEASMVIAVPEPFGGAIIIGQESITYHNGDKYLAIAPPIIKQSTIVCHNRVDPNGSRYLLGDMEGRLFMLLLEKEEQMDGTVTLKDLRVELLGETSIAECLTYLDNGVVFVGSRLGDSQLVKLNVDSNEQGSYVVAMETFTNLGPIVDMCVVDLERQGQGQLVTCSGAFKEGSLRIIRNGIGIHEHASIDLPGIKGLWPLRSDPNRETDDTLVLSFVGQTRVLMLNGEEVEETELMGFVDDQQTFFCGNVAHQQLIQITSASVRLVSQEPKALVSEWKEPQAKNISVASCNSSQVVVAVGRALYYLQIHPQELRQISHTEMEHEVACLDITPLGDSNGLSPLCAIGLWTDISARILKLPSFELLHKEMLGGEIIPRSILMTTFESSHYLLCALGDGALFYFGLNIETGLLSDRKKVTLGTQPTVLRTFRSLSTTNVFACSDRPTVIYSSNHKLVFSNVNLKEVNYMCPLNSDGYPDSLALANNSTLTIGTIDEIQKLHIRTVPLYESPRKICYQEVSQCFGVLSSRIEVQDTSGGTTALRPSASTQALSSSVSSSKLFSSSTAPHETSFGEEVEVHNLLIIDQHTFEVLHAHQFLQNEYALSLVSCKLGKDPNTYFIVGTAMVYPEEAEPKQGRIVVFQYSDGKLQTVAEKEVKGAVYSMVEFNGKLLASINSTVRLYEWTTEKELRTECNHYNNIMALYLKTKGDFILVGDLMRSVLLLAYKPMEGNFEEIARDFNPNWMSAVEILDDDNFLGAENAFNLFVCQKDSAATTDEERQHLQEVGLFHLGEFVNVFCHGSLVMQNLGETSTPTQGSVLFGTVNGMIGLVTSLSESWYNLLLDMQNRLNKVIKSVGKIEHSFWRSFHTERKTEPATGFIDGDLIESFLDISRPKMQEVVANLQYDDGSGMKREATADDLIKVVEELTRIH
# testDetails: NEK7 NanoBiT degradation assay in Cal51 NEK7 NanoBiT cell line
# Assay type: cell-based
# details: CAL-51; Cal51 NEK7 NanoBiT cells, 24 hours; read-out: NEK7 NanoBiT Dmax
Provide the recorded Dmax for the entries that follow.

INPUT: Quick check: Dmax of Cc1cnc(C(C)(C)C(=O)NCc2cc(Cl)c(C3CCC(=O)NC3=O)c(Cl)c2)o1 (stereo not shown) [Compound 163] ?
OUTPUT: 80%

INPUT: Quick check: Dmax of Cc1conc1C(C)(C)C(=O)NCc1cc(F)c(C2CCC(=O)NC2=O)c(Cl)c1 (stereo not shown) [Compound 279] ?
OUTPUT: 54%

INPUT: Quick check: Dmax of CC(C)(C(=O)NCc1cc(Cl)c(C2CCC(=O)NC2=O)c(Cl)c1)c1ccc2[nH]ccc2c1 (stereo not shown) [Compound 91] ?
OUTPUT: 97%

INPUT: Quick check: Dmax of CC(C)(C(=O)NCc1cc(Cl)c(C2CCC(=O)NC2=O)c(Cl)c1)c1ncc(C(F)F)cn1 (stereo not shown) [Compound 181] ?
OUTPUT: 93%

INPUT: Quick check: Dmax of CC(C)(C(=O)NCc1cc(Cl)c(C2CCC(=O)NC2=O)c(Cl)c1)c1ccc(C(N)=O)c(F)c1 (stereo not shown) [Compound 57] ?
OUTPUT: 94%

INPUT: Quick check: Dmax of CC(C)(C(=O)NCc1cc(Cl)c(C2CCC(=O)NC2=O)c(Cl)c1)c1cnc(C(F)F)cn1 (stereo not shown) [Compound 196] ?
OUTPUT: 90%

INPUT: Quick check: Dmax of O=C1CCC(c2c(Cl)cc(CNC(=O)C3(c4ccccc4)CCOC3)cc2Cl)C(=O)N1 (stereo not shown) [Compound 127] ?
OUTPUT: 90%

INPUT: Quick check: Dmax of CC(C)(C(=O)NCc1cc(F)c(C2CCC(=O)NC2=O)c(Cl)c1)c1ccncc1 (stereo not shown) [Compound 106] ?
OUTPUT: 80%

INPUT: Quick check: Dmax of CC(C)(C(=O)NCc1cc(Cl)c(C2CCC(=O)NC2=O)c(Cl)c1)c1cccc(S(N)(=O)=O)c1 (stereo not shown) [Compound 60] ?
OUTPUT: 96%

INPUT: Quick check: Dmax of COCc1nc(C(C)(C)C(=O)NCc2cc(Cl)c(C3CCC(=O)NC3=O)c(Cl)c2)ncc1C (stereo not shown) [Compound 233] ?
OUTPUT: 74%

INPUT: Quick check: Dmax of CC(C)(C(=O)NCc1cc(Cl)c(C2CCC(=O)NC2=O)c(Cl)c1)c1c[nH]cn1 (stereo not shown) [Compound 118] ?
OUTPUT: 48%

INPUT: Quick check: Dmax of COc1cnc(C(C)(C)C(=O)NCc2cc(F)c(C3CCC(=O)NC3=O)c(Cl)c2)nc1 (stereo not shown) [Compound 256] ?
OUTPUT: 85%

INPUT: Quick check: Dmax of CC(C)(C(=O)NCc1cc(Cl)c(C2CCC(=O)NC2=O)c(Cl)c1)c1ccnc(C(F)F)n1 (stereo not shown) [Compound 156] ?
OUTPUT: 54%

INPUT: Quick check: Dmax of COCc1ccnc(C(C)(C)C(=O)NCc2cc(Cl)c(C3CCC(=O)NC3=O)c(Cl)c2)n1 (stereo not shown) [Compound 217] ?
OUTPUT: 56%

INPUT: Quick check: Dmax of O=C1CCC(c2c(Cl)cc(CNC(=O)C3(c4ccc(F)cc4)COC3)cc2Cl)C(=O)N1 (stereo not shown) [Compound 140] ?
OUTPUT: 89%

INPUT: Quick check: Dmax of CC(C)(C(=O)NCc1cc(Cl)c(C2CCC(=O)NC2=O)c(Cl)c1)c1cc[nH]n1 (stereo not shown) [Compound 115] ?
OUTPUT: 76%

----------
# assayTarget: UniProtKB Q96SW2
# Sequence (Q96SW2 whole entry): as the sequence (Q96SW2 whole entry) above
# Sequence (Q16531 whole entry partner): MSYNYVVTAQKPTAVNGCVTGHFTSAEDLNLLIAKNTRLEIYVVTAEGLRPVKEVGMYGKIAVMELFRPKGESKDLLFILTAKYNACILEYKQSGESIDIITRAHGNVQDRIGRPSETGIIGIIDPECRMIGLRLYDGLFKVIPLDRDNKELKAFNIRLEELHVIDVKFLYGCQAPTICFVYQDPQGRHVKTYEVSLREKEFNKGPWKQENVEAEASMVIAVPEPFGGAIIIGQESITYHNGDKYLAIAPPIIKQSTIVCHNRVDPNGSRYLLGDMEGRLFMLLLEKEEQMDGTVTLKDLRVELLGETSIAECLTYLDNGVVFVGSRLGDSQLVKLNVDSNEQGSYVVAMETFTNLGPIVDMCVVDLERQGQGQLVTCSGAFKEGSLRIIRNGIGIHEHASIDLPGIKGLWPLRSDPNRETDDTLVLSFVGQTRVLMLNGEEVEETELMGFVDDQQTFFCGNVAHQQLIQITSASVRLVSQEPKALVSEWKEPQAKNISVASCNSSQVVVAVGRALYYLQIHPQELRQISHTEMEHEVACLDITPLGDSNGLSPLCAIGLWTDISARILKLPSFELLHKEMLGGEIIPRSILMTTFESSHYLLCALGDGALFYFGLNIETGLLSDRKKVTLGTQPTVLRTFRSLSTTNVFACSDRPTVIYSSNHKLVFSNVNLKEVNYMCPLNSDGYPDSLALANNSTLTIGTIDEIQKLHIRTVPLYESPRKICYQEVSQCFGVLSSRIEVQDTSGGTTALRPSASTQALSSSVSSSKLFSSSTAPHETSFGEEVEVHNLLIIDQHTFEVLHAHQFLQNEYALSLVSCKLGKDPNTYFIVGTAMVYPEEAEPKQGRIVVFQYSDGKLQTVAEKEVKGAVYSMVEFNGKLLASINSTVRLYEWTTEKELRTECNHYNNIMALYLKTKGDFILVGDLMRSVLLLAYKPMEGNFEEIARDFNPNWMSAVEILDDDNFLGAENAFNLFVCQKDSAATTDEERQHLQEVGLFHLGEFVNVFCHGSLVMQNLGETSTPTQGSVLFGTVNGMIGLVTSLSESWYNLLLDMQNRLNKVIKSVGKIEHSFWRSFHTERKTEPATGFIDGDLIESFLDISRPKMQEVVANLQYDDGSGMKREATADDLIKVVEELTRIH
# testDetails: Compound binding to CRBN by HTRF assay
# details: HTRF class; Cereblon binding
metricName: EC50

INPUT: Quick check: EC50 of CC(C)(C(=O)NCc1cc(Cl)c(C2CCC(=O)NC2=O)c(Cl)c1)c1cc(F)ccn1 (stereo not shown) ?
OUTPUT: 100 to 1000 nM

INPUT: Quick check: EC50 of CC(C)(C(=O)NCc1cc(Cl)c(C2CCC(=O)NC2=O)c(Cl)c1)c1c(F)cccc1F (stereo not shown) ?
OUTPUT: ≤ 100 nM

INPUT: Quick check: EC50 of CC(C)(C(=O)NCc1cc(Cl)c(C2CCC(=O)NC2=O)c(Cl)c1)c1nccc(CO)n1 (stereo not shown) ?
OUTPUT: 100 to 1000 nM

INPUT: Quick check: EC50 of COCc1ccnc(C(C)(C)C(=O)NCc2cc(Cl)c(C3CCC(=O)NC3=O)c(Cl)c2)n1 (stereo not shown) ?
OUTPUT: 100 to 1000 nM

----------
# assayTarget: NEK7 (Homo sapiens (Human), UniProt Q8TDX7+Q96SW2)
# testDetails: NEK7 NanoBiT degradation assay in Cal51 NEK7 NanoBiT cell line
# Assay type: cell-based
# details: CAL-51; NEK7 degradation, Cal51 NEK7 NanoBiT cells, 24 hours; read-out: NanoBiT Dmax
metricName: Dmax

INPUT: Quick check: Dmax of Cc1cnc(C(C)(C)C(=O)NCc2cc(F)c(C3CCC(=O)NC3=O)c(Cl)c2)nc1 (centres unmarked) ?
OUTPUT: ≤ 50%

INPUT: Quick check: Dmax of Cn1ccc(C(C)(C)C(=O)NCc2cc(Cl)c(C3CCC(=O)NC3=O)c(Cl)c2)cc1=O (centres unmarked) ?
OUTPUT: > 75%

INPUT: Quick check: Dmax of CC(C)(C(=O)NCc1cc(Cl)c(C2CCC(=O)NC2=O)c(Cl)c1)c1ccno1 (centres unmarked) ?
OUTPUT: 50 to 75%

INPUT: Quick check: Dmax of O=C1CCC(c2c(Cl)cc(CNC(=O)C3(c4ccc(F)cc4)CCOCC3)cc2Cl)C(=O)N1 (centres unmarked) ?
OUTPUT: > 75%

INPUT: Quick check: Dmax of CC(C)(C(=O)NCc1ccc(C2CCC(=O)NC2=O)c(Cl)c1)c1ccc(Cl)nc1 (centres unmarked) ?
OUTPUT: > 75%

INPUT: Quick check: Dmax of Cn1ncc2ccc(C3(C(=O)NCc4cc(Cl)c(C5CCC(=O)NC5=O)c(Cl)c4)CCOCC3)cc21 (centres unmarked) ?
OUTPUT: > 75%

INPUT: Quick check: Dmax of Cc1ccc(C(C)(C)C(=O)NCc2cc(Cl)c(C3CCC(=O)NC3=O)c(Cl)c2)nn1 (centres unmarked) ?
OUTPUT: > 75%

INPUT: Quick check: Dmax of Cc1cc(C(C)(C)C(=O)NCc2cc(Cl)c(C3CCC(=O)NC3=O)c(Cl)c2)cc(=O)[nH]1 (centres unmarked) ?
OUTPUT: > 75%

----------
# assayTarget: NEK7 (Homo sapiens (Human), UniProt Q8TDX7+Q96SW2)
# testDetails: NEK7 NanoBiT degradation assay in Cal51 NEK7 NanoBiT cell line
# Assay type: cell-based
# details: CAL-51; Cal51 NEK7 NanoBiT cells, 24 hours; read-out: NEK7 NanoBiT Dmax
metricName: Dmax (%)
// note: answer is a bare numeric in %

INPUT: Quick check: Dmax of CC(C)(C(=O)NCc1cc(Cl)c(C2CCC(=O)NC2=O)c(Cl)c1)c1nocc1C1CC1 (stereo not drawn) ?
OUTPUT: 83

INPUT: Quick check: Dmax of CC(C)(C(=O)NCc1cc(Cl)c(C2CCC(=O)NC2=O)c(Cl)c1)c1c(F)cccc1F (stereo not drawn) ?
OUTPUT: 98

INPUT: Quick check: Dmax of CC(C)(C(=O)NCc1cc(Cl)c(C2CCC(=O)NC2=O)c(Cl)c1)c1cnc(CO)cn1 (stereo not drawn) ?
OUTPUT: 85

INPUT: Quick check: Dmax of COc1conc1C(C)(C)C(=O)NCc1cc(F)c(C2CCC(=O)NC2=O)c(Cl)c1 (stereo not drawn) ?
OUTPUT: 88

INPUT: Quick check: Dmax of CC(C)(C(=O)NCc1cc(Cl)c(C2CCC(=O)NC2=O)c(Cl)c1)c1ccc(C#N)cn1 (stereo not drawn) ?
OUTPUT: 95

INPUT: Quick check: Dmax of CC(C)(C(=O)NCc1cc(Cl)c(C2CCC(=O)NC2=O)c(Cl)c1)c1ccc(S(N)(=O)=O)cc1 (stereo not drawn) ?
OUTPUT: 97

INPUT: Quick check: Dmax of CC(C)(C(=O)NCc1cc(F)c(C2CCC(=O)NC2=O)c(Cl)c1)c1ccc(OC(F)(F)F)nn1 (stereo not drawn) ?
OUTPUT: 57

INPUT: Quick check: Dmax of CC(C)(C(=O)NCc1cc(Cl)c(C2CCC(=O)NC2=O)c(Cl)c1)c1ncc(C(=O)O)cn1 (stereo not drawn) ?
OUTPUT: 11

INPUT: Quick check: Dmax of O=C1CCC(c2c(Cl)cc(CNC(=O)C3(c4ccncc4)CCC3)cc2Cl)C(=O)N1 (stereo not drawn) ?
OUTPUT: 78

INPUT: Quick check: Dmax of CC(C)(C(=O)NCc1ccc(C2CCC(=O)NC2=O)c(Cl)c1)c1ccncc1 (stereo not drawn) ?
OUTPUT: 69

INPUT: Quick check: Dmax of Cn1ccc(C(C)(C)C(=O)NCc2cc(Cl)c(C3CCC(=O)NC3=O)c(Cl)c2)n1 (stereo not drawn) ?
OUTPUT: 74

INPUT: Quick check: Dmax of CC(C)(C(=O)NCc1cc(Cl)c(C2CCC(=O)NC2=O)c(Cl)c1)c1ccc(NS(C)(=O)=O)cc1 (stereo not drawn) ?
OUTPUT: 88

INPUT: Quick check: Dmax of CC(C)(C(=O)NCc1cc(Cl)c(C2CCC(=O)NC2=O)c(Cl)c1)c1cn(C(C)(F)F)c(=O)cn1 (stereo not drawn) ?
OUTPUT: 82

INPUT: Quick check: Dmax of CC(C)(C(=O)NCc1cc(Cl)c(C2CCC(=O)NC2=O)c(Cl)c1)c1ccc(C(N)=O)cc1 (stereo not drawn) ?
OUTPUT: 94

INPUT: Quick check: Dmax of CC(C)(C(=O)NCc1cc(Cl)c(C2CCC(=O)NC2=O)c(Cl)c1)c1ncc(CC(F)(F)F)cn1 (stereo not drawn) ?
OUTPUT: 63

INPUT: Quick check: Dmax of CC(C)(C(=O)NCc1cc(Cl)c(C2CCC(=O)NC2=O)c(Cl)c1)c1ncc(N2CCC2)cn1 (stereo not drawn) ?
OUTPUT: 69

INPUT: Quick check: Dmax of CC1(C(=O)NCc2cc(Cl)c(C3CCC(=O)NC3=O)c(Cl)c2)COc2ccccc2O1 (stereo not drawn) ?
OUTPUT: 85

INPUT: Quick check: Dmax of COc1ccc(C(C)(C)C(=O)NCc2cc(F)c(C3CCC(=O)NC3=O)c(Cl)c2)cn1 (stereo not drawn) ?
OUTPUT: 96

INPUT: Quick check: Dmax of [2H]C([2H])([2H])C(C(=O)NCc1cc(Cl)c(C2CCC(=O)NC2=O)c(Cl)c1)(c1ncc(C)cn1)C([2H])([2H])[2H] (stereo not drawn) ?
OUTPUT: 87

INPUT: Quick check: Dmax of Cn1cc(C(C)(C)C(=O)NCc2cc(Cl)c(C3CCC(=O)NC3=O)c(Cl)c2)ccc1=O (stereo not drawn) ?
OUTPUT: 74

INPUT: Quick check: Dmax of CC1(C(=O)NCc2ccc(C3CCC(=O)NC3=O)c(Cl)c2)CCc2ccccc2C1 (stereo not drawn) ?
OUTPUT: 86

INPUT: Quick check: Dmax of COCCc1cnc(C(C)(C)C(=O)NCc2cc(Cl)c(C3CCC(=O)NC3=O)c(Cl)c2)nc1 (stereo not drawn) ?
OUTPUT: 48

INPUT: Quick check: Dmax of CC(C)(C(=O)NCc1cc(Cl)c(C2CCC(=O)NC2=O)c(Cl)c1)c1cnc(OC(F)(F)F)cn1 (stereo not drawn) ?
OUTPUT: 91

INPUT: Quick check: Dmax of Cn1cccc(C(C)(C)C(=O)NCc2cc(Cl)c(C3CCC(=O)NC3=O)c(Cl)c2)c1=O (stereo not drawn) ?
OUTPUT: 58

INPUT: Quick check: Dmax of CC(C)(C(=O)NCc1cc(Cl)c(C2CCC(=O)NC2=O)c(Cl)c1)c1nc(C2CC2)co1 (stereo not drawn) ?
OUTPUT: 87

INPUT: Quick check: Dmax of COc1conc1C(C)(C)C(=O)NCc1cc(Cl)c(C2CCC(=O)NC2=O)c(Cl)c1 (stereo not drawn) ?
OUTPUT: 92

INPUT: Quick check: Dmax of CC(C)(C(=O)NCc1cc(F)c(C2CCC(=O)NC2=O)c(Cl)c1)c1ccc(OCC(F)F)nc1 (stereo not drawn) ?
OUTPUT: 95

INPUT: Quick check: Dmax of O=C1CCC(c2c(Cl)cc(CNC(=O)C3(c4ccc(F)cc4)CCOCC3)cc2Cl)C(=O)N1 (stereo not drawn) ?
OUTPUT: 94

INPUT: Quick check: Dmax of CC(C)(C(=O)NCc1cc(Cl)c(C2CCC(=O)NC2=O)c(Cl)c1)c1ccc2c(c1)CNS2(=O)=O (stereo not drawn) ?
OUTPUT: 93

INPUT: Quick check: Dmax of CC(C)(C(=O)NCc1cc(Cl)c(C2CCC(=O)NC2=O)c(Cl)c1)c1ncc(C2COC2)cn1 (stereo not drawn) ?
OUTPUT: 66
